system: c-Src; experiment: phosphorylation enrichment, bacterial display (enrichment ratio); higher = better substrate or ligand; peptides without Tyr show the background;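 note: 11-residue human phosphosite peptides and single-mutation variants displayed on the E. coli surface, counted by deep sequencing, each peptide's frequency after selection divided by its frequency in the unselected input library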;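 note: frequency after pTyr selection over input frequency; kinase dosed for 20-30% of maximal phosphorylation in three min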
Criterion: phosphorylation enrichment meeting or surpassing 0.5. Met: 1.0. Not met: 0.0.

Known results for sequences:
LIEQAYDNLHE [PRPF8_Y871_P874L]; 0.0
CTTIHYYYMCN [TP53_Y234_N235Y]; 1.0
LPHVIYCRLWC [SMAD2_Y128_R133C]; 1.0
SLIDGYYRLTE [JAK2_Y372_A377E]; 1.0
DLSEVYKPCRK [CCDC93_Y176_R179C]; 0.0
ESTPLYPMLFG [SCLY_Y280_F276S]; 0.0
HNLDYYKMTTN [FGFR3_Y648_K650M]; 1.0
IVFTSYVLTIL [TAS2R16_Y239_F240V]; 1.0

Please tell me: is the sequence RLFARYFQGDL [PDK3_Y337_YF] at or over 0.5 in terms of phosphorylation enrichment?
0.0

Please tell me: is the sequence DEFLEHRRIVG [FAM221A_Y20_Y20H_YF] at or over 0.5 in terms of phosphorylation enrichment?
0.0

Please tell me: is the sequence TLLSAYQIPRT [GAB2_Y324_P320L] at or over 0.5 in terms of phosphorylation enrichment?
0.0

Please tell me: is the sequence KRFRIYHLAIS [BRCA2_Y3009_T3013I_YF] at or over 0.5 in terms of phosphorylation enrichment?
0.0

Please tell me: is the sequence GYGGGYGGVLT [KRT19_Y65_A60G] at or over 0.5 in terms of phosphorylation enrichment?
0.0

Please tell me: is the sequence PLFRVYGLESL [INSR_Y94_L89P] at or over 0.5 in terms of phosphorylation enrichment?
1.0

Please tell me: is the sequence CTNELYMMMRD [FGFR1_Y730] at or over 0.5 in terms of phosphorylation enrichment?
1.0

Please tell me: is the sequence RQGKDYIGAIP [KDR_Y951_V952I] at or over 0.5 in terms of phosphorylation enrichment?
1.0

Please tell me: is the sequence KLNNEYLELNY [MME_Y497] at or over 0.5 in terms of phosphorylation enrichment?
1.0

Data credit: the supplement of paper PMC10065799
